Molecular target: T1, PDL1-hFc (UniProt Q9NZQ7 19-238)
T1 construct: Coated at 1 µg/ml in the ELISAs of the chimeric and humanized antibodies; construct not described
T1 sequence (Q9NZQ7 19-238): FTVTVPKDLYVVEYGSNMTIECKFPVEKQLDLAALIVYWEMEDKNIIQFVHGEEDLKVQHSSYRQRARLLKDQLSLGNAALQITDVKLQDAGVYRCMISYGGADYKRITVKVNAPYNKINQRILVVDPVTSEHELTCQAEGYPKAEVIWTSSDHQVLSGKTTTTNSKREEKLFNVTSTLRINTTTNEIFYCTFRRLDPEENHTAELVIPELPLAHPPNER
Assay: ELISA, PDL1-hFc coated 1 µg/ml, antibody supernatant at 300 ng/ml, anti-human Kappa HRP
recorded.metric: OD450-650 nM, 300 ng/ml PDL1 binding (OD)
Please respond with the number in OD and leave the unit unwritten.

binder	observed.value
3C3 heavy chain M / light chain Hu (antibody, V domains shown, Human IgG, kappa, from pTCAED vectors; tested as culture supernatant) VH: EVQLQESGPGLTKPSQTLSLTCSVTGYSITSDYWDWIRKFPGNKLEYMGYISYTGSTYYNPSLRSRISITRDTSKNQYYLQLSSVTSEDSATYYCARRGGWLSPFVYWGQGTLVTVSA VL: DIQMTQSPSSLSASVGDRVTITCKSRQSLLFSSNQKNSLAWYQQKPGKAPKLLIYWASTRESGVPSRFSGSGSGTDFTLTISSLQPEDFATYYCQQYYTYPFTFGQGTKLEIK	1.85

Now for a further binder.
Form field OD450-650 nM, 300 ng/ml PDL1 binding, entry 3C3 humanized antibody HuHu0 (antibody, V domains shown, Human IgG, kappa, from pTCAED vectors; also called 3C3 heavy chain Hu / light chain Hu0) VH: QVQLQESGPGLVKPSQTLSLTCTVSGYSITSDYWDWIRQPPGKGLEWIGYISYTGSTYYNPSLRSRVTISVDTSKNQFSLKLSSVTAADTAVYYCARRGGWLSPFVYWGQGTLVTVSS VL: DIVMTQSPDSLAVSLGERATINCKSRQSLLFSSNQKNSLAWYQQKPGQPPKLLIYWASTRESGVPDRFSGSGSGTDFTLTISSLQAEDVAVYYCQQYYTYPFTFGQGTKLEIK : 0.15
